- MEASURED_ON: T1, CaPCNA (Candida albicans, UniProt Q5AMN0 1-259)
- T1 construct: proliferating cell nuclear antigen (PCNA), Candida albicans; also called C. albicans PCNA; source: E. coli BL21-DE3, purified
- T1 sequence (looked up): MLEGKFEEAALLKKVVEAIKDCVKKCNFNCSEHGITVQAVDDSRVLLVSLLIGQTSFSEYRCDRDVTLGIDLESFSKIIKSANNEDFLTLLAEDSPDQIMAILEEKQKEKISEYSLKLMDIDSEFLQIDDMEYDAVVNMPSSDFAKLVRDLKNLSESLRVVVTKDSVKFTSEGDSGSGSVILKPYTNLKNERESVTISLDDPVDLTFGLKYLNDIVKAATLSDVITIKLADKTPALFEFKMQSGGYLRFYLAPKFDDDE
- ASSAY_COMMENT: ITC; PCNA (200 μM, counted as a trimer) in the syringe, Polη (10 μM) or ubz peptide (20 μM) in the cell; 25 injections of 1.5 μl; 25 °C; 20 mM HEPES pH 7.4, 150 mM NaCl; single-site binding model
- CONDITION_INFO: both partners purified
VALUE_KIND: Kd (µM)
One number for each entry, in µM.

Using the record for KTKKCSRCKLSVDDPVEHNDYHIAMDLSN (also called wild-type ubz peptide; WT UBZ peptide; source: synthetic peptide (China peptides Co Ltd, 98% purity)) [29-mer ubz peptide of CaPolη (607-635)] , state its measured Kd.
19.8

Hey, just so you know, these numbers are from paper PMC8784325.
